- TARGET: T1, Pex13, P80667
- T1 sequence (P80667 295-386, looked up): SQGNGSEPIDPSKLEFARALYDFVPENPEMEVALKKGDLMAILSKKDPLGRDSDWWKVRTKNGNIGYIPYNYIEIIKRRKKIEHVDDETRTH
- METHOD: SPOT array
- SETTINGS: median of control spots 1341
OUTCOME_MEASURE: SPOT intensity

Please review the following examples before continuing.
>  <BINDER>
RSKRLFPVRPMATAH

>  <ASSAY_VALUE>
11

$$$$
>  <BINDER>
HHKRRPTTIDVPGLT

>  <ASSAY_VALUE>
18

$$$$
>  <BINDER>
AGKRRLPLVRFKASD

>  <ASSAY_VALUE>
4

$$$$
>  <BINDER>
PAPPPPPRASRPTPN

>  <ASSAY_VALUE>
56

$$$$
>  <BINDER>
IKKRNKIRLPSGSPE

>  <ASSAY_VALUE>
2

$$$$

Entry under review: SSAAPPPPPRRATPE . Reported SPOT intensity?
58

What value of SPOT intensity has been recorded for this entry: AERNYAPRLPRRETS
76

Could you tell me which SPOT intensity is on file for RPVPPPPPMRTTTEG ?
185

Look at this binder and give its reported SPOT intensity. SAPDIPPRSPNRNAH
21

// SPOT intensity lookup, key: DKSRPPRPPPKPLHL
144

# input binder: PLQSKIPMLPSRRTM ; wanted: its SPOT intensity
329

// query SPOT intensity value for entry KKIRLIFTYPSTVGR
12

Requested read-out: SPOT intensity. Entry: GQYRRTIVIPRRFFT
20

Look up SPOT intensity for this binder: MSPLGAPPPPPHKDH
0

Suppose we examine the binder VQQDSLPKLPFRSWG ; what SPOT intensity value has been reported?
490
